All values here come from patent US8642609B2.

# target_desc: ΔF508-CFTR (Homo sapiens, UniProt P13569, DEL508-508)
# Construct: expressed in transfected cells
# Sequence (P13569 with tags, fused parts or gaps DEL508-508): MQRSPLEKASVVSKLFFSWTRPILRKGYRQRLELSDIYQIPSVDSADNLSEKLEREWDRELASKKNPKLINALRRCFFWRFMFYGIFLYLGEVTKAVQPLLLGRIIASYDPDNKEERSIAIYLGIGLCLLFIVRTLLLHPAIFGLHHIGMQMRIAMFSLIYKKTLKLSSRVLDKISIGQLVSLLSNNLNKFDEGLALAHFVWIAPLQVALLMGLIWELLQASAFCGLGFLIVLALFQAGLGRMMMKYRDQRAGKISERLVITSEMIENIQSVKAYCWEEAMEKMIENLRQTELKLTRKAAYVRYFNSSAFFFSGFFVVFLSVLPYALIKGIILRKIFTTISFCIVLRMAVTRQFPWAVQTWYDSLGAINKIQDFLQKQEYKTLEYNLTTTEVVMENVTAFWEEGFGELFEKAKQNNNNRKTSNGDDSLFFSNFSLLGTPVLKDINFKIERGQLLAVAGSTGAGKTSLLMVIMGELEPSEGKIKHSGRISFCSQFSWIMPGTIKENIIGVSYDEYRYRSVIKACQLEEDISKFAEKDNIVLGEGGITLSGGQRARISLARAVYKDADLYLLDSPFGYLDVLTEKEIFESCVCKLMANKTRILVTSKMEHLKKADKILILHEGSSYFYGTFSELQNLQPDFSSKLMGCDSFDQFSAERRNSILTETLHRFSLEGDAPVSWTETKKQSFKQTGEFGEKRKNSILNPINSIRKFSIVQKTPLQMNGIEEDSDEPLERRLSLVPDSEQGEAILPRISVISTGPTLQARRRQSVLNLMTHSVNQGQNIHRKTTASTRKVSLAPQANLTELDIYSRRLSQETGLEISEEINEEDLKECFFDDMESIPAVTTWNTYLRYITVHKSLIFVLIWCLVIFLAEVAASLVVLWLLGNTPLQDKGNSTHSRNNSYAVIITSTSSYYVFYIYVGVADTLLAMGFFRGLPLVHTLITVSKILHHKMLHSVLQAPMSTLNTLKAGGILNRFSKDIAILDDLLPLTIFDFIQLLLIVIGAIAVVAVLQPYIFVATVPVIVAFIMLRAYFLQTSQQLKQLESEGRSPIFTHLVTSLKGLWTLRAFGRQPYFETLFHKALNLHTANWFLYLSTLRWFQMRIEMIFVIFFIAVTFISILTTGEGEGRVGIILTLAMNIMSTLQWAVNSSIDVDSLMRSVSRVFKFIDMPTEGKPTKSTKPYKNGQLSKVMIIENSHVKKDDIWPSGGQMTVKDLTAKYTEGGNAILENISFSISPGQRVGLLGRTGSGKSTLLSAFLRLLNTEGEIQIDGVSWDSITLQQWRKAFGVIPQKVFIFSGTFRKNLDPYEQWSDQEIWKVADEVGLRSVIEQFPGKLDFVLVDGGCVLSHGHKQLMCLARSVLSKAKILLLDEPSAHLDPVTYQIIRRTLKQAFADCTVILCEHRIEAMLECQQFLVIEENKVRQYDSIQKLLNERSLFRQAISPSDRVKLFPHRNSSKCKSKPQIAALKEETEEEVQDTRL
# protocol_summary: Membrane potential optical assay (FRET/VIPR), identification of correction compounds
# Type: cell-based
pEC50: −log10 of the molar value.
measurement_name: pEC50

Req: Item under review: CC(c1nc2ccccc2c(=O)n1C)N1CCC(NS(=O)(=O)c2ccc(Br)cc2)C1 (centres unmarked) . Reported pEC50?
Resp: 4.22 to 4.60

Req: Form field: reported pEC50 of Cc1ccc(C(=O)N2CCN(C(C)c3nc4ccccc4c(=O)n3C)CC2)cc1 (centres unmarked)
Resp: 4.60 to 5.00

Req: Query: pEC50; subject: `COc1ccc(S(=O)(=O)N2CCN(Cc3nc(N4CCCCC4)c4ccccc4n3)CC2)cc1`
Resp: 4.60 to 5.00

====

# target_desc: ΔF508-CFTR (Homo sapiens, UniProt P13569, DEL508-508)
# Construct: expressed in transfected cells
# protocol_summary: Membrane potential optical assay (FRET/VIPR), identification of correction compounds
# Assay type: cell-based
pEC50: −log10 of the molar value.
measurement_name: pEC50

Some solved cases for reference:
COc1ccc(S(=O)(=O)N2CCN(C(C)c3nc(Oc4ccncc4)c4ccccc4n3)CC2)cc1 (centres unmarked): > 5.00
COc1ccc(S(=O)(=O)N2CCN(C(C)c3nc(NC4CCCC4)c4ccccc4n3)CC2)cc1 (centres unmarked): > 5.00
COc1ccc(S(=O)(=O)N(C)CCNC(C)c2nc3ccccc3c(=O)n2C)cc1 (centres unmarked): 4.22 to 4.60
CC(c1nc2ccc(S(C)(=O)=O)cc2c(=O)n1C)N1CCN(S(=O)(=O)c2ccccc2)CC1 (centres unmarked): 4.60 to 5.00

Proceed to the following item.
Req: Param item = Cc1ccc(C(=O)N2CCN(C(C)c3cc4ccc(Cl)cc4c(=O)n3C)CC2)cc1 (centres unmarked) ; retrieve measured pEC50.
Resp: 4.60 to 5.00

====

# target_desc: ΔF508-CFTR (Homo sapiens, UniProt P13569, DEL508-508)
# protocol_summary: Membrane potential optical assay (FRET/VIPR), identification of correction compounds
pEC50: −log10 of the molar value.
Recorded pEC50 for the following compounds

Examples from the recorded data:
COc1ccc(S(=O)(=O)N2CCN(C(C)c3nc(OC(C)(C)C)c4ccccc4n3)CC2)cc1 (stereo not shown): > 5.00
CC(c1nc2ccccc2c(=O)[nH]1)N1CCN(S(=O)(=O)c2ccccc2)CC1 (stereo not shown): 4.60 to 5.00
CC(c1nc2cc(Cl)ccc2c(=O)n1C)N1CCN(C(=O)c2ccc(F)cc2)CC1 (stereo not shown): 4.60 to 5.00
CC(c1nc2ccccc2c(=O)n1C)N1CCN(S(=O)(=O)c2ccccc2)CC1 (stereo not shown): 4.22 to 4.60
CC(c1nc2ccccc2c(=O)n1C)N1CCN(S(=O)(=O)c2cccc(F)c2)CC1 (stereo not shown): 4.22 to 4.60
COc1ccc(S(=O)(=O)N2CCC(C(C)c3nc(OC4CCCCC4)c4ccccc4n3)CC2)cc1 (stereo not shown): > 5.00

API: the following record is the query input.
Req: Given the entry CC(c1nc2ccccc2c(=O)n1C)N1CCN(S(=O)(=O)c2cccc(C(=O)O)c2)CC1 (stereo not shown) , report its measured pEC50.
Resp: 4.22 to 4.60

====

# target_desc: ΔF508-CFTR (Homo sapiens, UniProt P13569, DEL508-508)
# Construct: expressed in transfected cells
# protocol_summary: Membrane potential optical assay (FRET/VIPR), identification of correction compounds
# Type: cell-based
# experimental_conditions: relative efficacy
measurement_name: Emax

CCCn1c(CN2CCN(S(=O)(=O)c3ccc(Cl)cc3)CC2)nc2ccccc2c1=O [compound 151]: > 100%

Req: Any idea what Emax was measured for COc1ccc(S(=O)(=O)N2CCN(C(C)c3nc(NC4CCCCC4)c4cc(F)ccc4n3)CC2)cc1 (stereo not shown) [compound 373] ?
Resp: 25 to 100%

Req: Entry COCCn1c(C(C)N2CCN(S(=O)(=O)c3ccc(OC)cc3)CC2)nc2ccccc2c1=O (stereo not shown) [compound 4] : reported Emax = ?
Resp: 25 to 100%

Req: For the compound CC(c1nc2ccc(Cl)cc2c(=O)n1C)N1CCN(C(=O)c2ccc(Br)cc2)CC1 (stereo not shown) [compound 17] , what Emax is on record?
Resp: 25 to 100%

Req: Fill in: Emax of CC(c1nc2ccccc2c(=O)n1C)N1CCN(S(=O)(=O)c2cccc3cccnc23)CC1 (stereo not shown) [compound 276] is ___
Resp: < 25%

Req: Could you share which Emax value was measured for COc1ccc(S(=O)(=O)N2CCN(C(C)c3nc4ccccc4c(=O)[nH]3)CC2)cc1 (stereo not shown) [compound 130] ?
Resp: < 25%

Req: Would you mind telling me what Emax value was observed for COc1cc2nc(C(C)N3CCN(S(=O)(=O)c4ccc(Br)cc4)CC3)n(C)c(=O)c2cc1OC (stereo not shown) [compound 284] ?
Resp: 25 to 100%

Req: Which Emax value belongs to CC(c1nc2ccccc2c(=O)n1C)N1CCN(S(=O)(=O)c2ccc(Cl)c3nonc23)CC1 (stereo not shown) [compound 271] ?
Resp: < 25%

Req: What Emax value was documented for this compound, CC(c1nc2ccccc2c(=O)n1C)N1CCN(S(=O)(=O)c2cc(S(=O)(=O)c3ccccc3)cs2)CC1 (stereo not shown) [compound 263] ?
Resp: < 25%

Req: I'd like to know its Emax. The compound in question is CCCn1c(CN2CCN(S(=O)(=O)c3ccc(OC)cc3)CC2)nc2ccccc2c1=O [compound 150]
Resp: 25 to 100%

====

# target_desc: ΔF508-CFTR (Homo sapiens, UniProt P13569, DEL508-508)
# protocol_summary: Membrane potential optical assay (FRET/VIPR), identification of correction compounds
pEC50: −log10 of the molar value.
measurement_name: pEC50

Req: Query the reported pEC50 for ΔF508-CFTR (Homo sapiens, UniProt P13569, DEL508-508); item: CC(c1nc2cc(Cl)ccc2c(=O)n1C)N1CCN(S(=O)(=O)c2cccc(Cl)c2)CC1 (stereo not drawn)
Resp: > 5.00

Req: Give ΔF508-CFTR (Homo sapiens, UniProt P13569, DEL508-508) pEC50 for CC(c1nc2ccccc2c(=O)n1C)N1CCN(S(=O)(=O)N(C)C)CC1 (stereo not drawn)
Resp: 4.22 to 4.60

====

Readings of EC50 for the listed compounds
# target_desc: ΔF508-CFTR (Homo sapiens, UniProt P13569, DEL508-508)
# protocol_summary: Membrane potential optical assay (FRET/VIPR), identification of correction compounds

Req: Give the reported EC50 for COc1ccc(S(=O)(=O)N2CCN(C(C)c3nc(NCc4ccccc4)c4ccccc4n3)CC2)cc1 (centres unmarked) [compound 367] (system: ΔF508-CFTR (Homo sapiens, UniProt P13569, DEL508-508)).
Resp: < 10 µM

Req: Short answer please: EC50, ΔF508-CFTR (Homo sapiens, UniProt P13569, DEL508-508), entry CCCn1c(C(C)N2CCN(S(=O)(=O)c3ccc(Cl)c([N+](=O)[O-])c3)CC2)nc2ccccc2c1=O (centres unmarked) [compound 20]
Resp: 25 to 60 µM

Req: What value of EC50 on ΔF508-CFTR (Homo sapiens, UniProt P13569, DEL508-508) does CC(c1nc2ccccc2c(=O)n1C)N1CCN(C(=O)Nc2ccccc2)CC1 (centres unmarked) [compound 31] have?
Resp: 10 to 25 µM

Req: Requested read-out EC50, target or system ΔF508-CFTR (Homo sapiens, UniProt P13569, DEL508-508), entry COc1ccc(S(=O)(=O)NCCN(C(C)c2nc3ccccc3c(=O)n2C)S(=O)(=O)c2ccc(OC)cc2)cc1 (centres unmarked) [compound 197]
Resp: 25 to 60 µM

Req: Request body: readout EC50, system ΔF508-CFTR (Homo sapiens, UniProt P13569, DEL508-508), query CCc1nc2ccccc2c(=O)n1C [compound 87] . Return the value.
Resp: 25 to 60 µM

Req: Short answer please: EC50, ΔF508-CFTR (Homo sapiens, UniProt P13569, DEL508-508), entry CCCn1c(C(C)N2CCN(C(=O)Nc3ccc(OC)cc3OC)CC2)nc2ccccc2c1=O (centres unmarked) [compound 25]
Resp: 25 to 60 µM

Req: Recorded EC50 for COc1ccc(S(=O)(=O)N2CCC(NC(C)c3nc4ccccc4c(=O)n3C)CC2)cc1 (centres unmarked) [compound 208] with ΔF508-CFTR (Homo sapiens, UniProt P13569, DEL508-508), please?
Resp: 25 to 60 µM

Req: # value lookup — system ΔF508-CFTR (Homo sapiens, UniProt P13569, DEL508-508), readout EC50, item CC(c1nc2cc(Cl)ccc2c(=O)n1C)N1CCN(S(C)(=O)=O)CC1 (centres unmarked) [compound 108]
Resp: 10 to 25 µM

Req: Form field - read-out: EC50; system: ΔF508-CFTR (Homo sapiens, UniProt P13569, DEL508-508); submitted item: COc1ccc(S(=O)(=O)N2CCN(C(C)c3nc(N4CCCc5ccccc54)c4ccccc4n3)CC2)cc1 (centres unmarked) [compound 388]
Resp: < 10 µM

Req: Form field: EC50 recorded for CCCn1c(C(C)N2CCN(S(=O)(=O)c3ccc(C)cc3)CC2)nc2ccccc2c1=O (centres unmarked) [compound 29] with ΔF508-CFTR (Homo sapiens, UniProt P13569, DEL508-508) (enter value)
Resp: 10 to 25 µM

Req: Query EC50 on ΔF508-CFTR (Homo sapiens, UniProt P13569, DEL508-508) for CC(c1nc2ccccc2c(=O)n1C)N1CCN(S(=O)(=O)c2cccc(C#N)c2)CC1 (centres unmarked) [compound 279]
Resp: 25 to 60 µM

Req: Query for ΔF508-CFTR (Homo sapiens, UniProt P13569, DEL508-508): what EC50 does the record show for CC(c1nc2ccccc2c(=O)n1C)N1CCN(S(=O)(=O)c2ccc(-c3cc(C(F)(F)F)n(C)n3)s2)CC1 (centres unmarked) [compound 275] ?
Resp: 25 to 60 µM

Req: Checklist item: EC50 tested on ΔF508-CFTR (Homo sapiens, UniProt P13569, DEL508-508), entry CC(c1nc2ccccc2c(=O)n1C)N1CCN(S(=O)(=O)c2cccs2)CC1 (centres unmarked) [compound 274] , value?
Resp: 25 to 60 µM

Req: What value of EC50 on ΔF508-CFTR (Homo sapiens, UniProt P13569, DEL508-508) does CC(c1nc2ccccc2c(=O)n1C)N(CCN(C)S(=O)(=O)c1ccc(Br)cc1)S(=O)(=O)c1ccc(Br)cc1 (centres unmarked) [compound 202] have?
Resp: 25 to 60 µM
